System: XBP1(u)-luciferase splicing reporter in HepG2 hepatoma cells
Assay: HepG2 XBP1 reporter assay (XBP1(u)-Luc)
Format: cell-based
Details: Homo sapiens, 6 h, six hours after addition of compound
readoutType: IC50

>  <compound>
Cc1cc(N2CCCOC[C@@H]2c2cc(O)c(CS(C)(=O)=O)cc2Cl)nc(N)n1 [D-86]

>  <IC50>
< 600 nM

$$$$
>  <compound>
Cc1cc(N2CCCOC[C@@H]2c2cc3c(cc2Cl)OCC(C)(C)CO3)nc(N)n1 [D-31]

>  <IC50>
< 600 nM

$$$$
>  <compound>
CCOC(=O)c1cc(C2COCCCN2c2cc(C)nc(N)n2)c(Cl)cc1C#N [D-129]

>  <IC50>
≥ 5000 nM

$$$$
>  <compound>
CCC(=O)Nc1cc(Cl)c(C2COCCCN2c2cc(C)nc(N)n2)cc1O [D-97]

>  <IC50>
< 600 nM

$$$$
>  <compound>
CC(=O)Nc1cc(Cl)c(C2COCCCN2c2cc(C)nc(N)n2)cc1O [D-109]

>  <IC50>
< 600 nM

$$$$
>  <compound>
Cc1cc(N2CCCOC[C@@H]2c2ncc(CS(C)(=O)=O)cc2Cl)nc(N)n1 [D-81]

>  <IC50>
< 600 nM

$$$$
>  <compound>
Cc1cc(N2CCCOC[C@H]2c2ccc([C@H]3CCCN3)cc2Cl)nc(N)n1 [D-89]

>  <IC50>
2000 to 5000 nM

$$$$
>  <compound>
COc1cc(C2COCCCN2c2cc(C)nc(N)n2)c(Cl)cc1OCCCC#N [D-18]

>  <IC50>
600 to 2000 nM

$$$$

# IC50 lookup, item Cc1cc(N2CCCOC[C@H]2c2ccc(NC(=O)C3(F)CCOC3)cc2Cl)nc(N)n1 (stereo partly drawn) [D-58]
< 600 nM

# IC50 lookup, item CCc1cc(N2CCCOCC2c2ccc(CS(C)(=O)=O)cc2Cl)nc(N)n1 [D-52]
< 600 nM

# IC50 lookup, item Cc1cc(N2CCCOC[C@@H]2c2cc3c(cc2Cl)N(C)CC3)nc(N)n1 [D-14]
< 600 nM

# IC50 lookup, item Cc1cc(N2CCCOC[C@H]2c2cc(O)c(OC(F)F)cc2Cl)nc(N)n1 [D-56]
≥ 5000 nM

# IC50 lookup, item Cc1cc(N2CCCOC[C@@H]2c2cc3c(cc2Cl)NC[C@@](C)(C(N)=O)O3)nc(N)n1 [D-120]
< 600 nM

====

Tested on: XBP1(u)-luciferase splicing reporter in HepG2 hepatoma cells
Test: HepG2 XBP1 reporter assay (XBP1(u)-Luc)
Type: cell-based
Settings: Homo sapiens, 6 h, six hours after addition of compound
pIC50: −log10 of the molar value.
pIC50 values for the compounds below.

Completed entries (count: 3):
>  <compound>
Cc1cc(N2CCCOCC2c2ccc(Cl)cc2C#N)nc(N)n1 [D-107]

>  <pIC50>
5.70 to 6.22

$$$$
>  <compound>
Cc1cc(N2CCCOC[C@H]2c2cc3c(cc2Cl)NC[C@@](C)(C(=O)O)O3)nc(N)n1 [D-114]

>  <pIC50>
≤ 5.30

$$$$
>  <compound>
Cc1cc(N2CCCOCC2c2cc(O)c(CS(C)(=O)=O)cc2Cl)nc(N)n1 [D-65]

>  <pIC50>
> 6.22

$$$$

# pIC50 lookup, item CS(=O)(=O)c1ccc(C2COCCCN2c2cc(C(F)(F)F)nc(N)n2)c(Cl)c1 [D-188]
≤ 5.30

# pIC50 lookup, item CCc1cc(N2CCCOCC2c2cc(O)c(OC)cc2Cl)nc(N)n1 [D-71]
> 6.22

# pIC50 lookup, item Cc1cc(N2CCCOCC2c2cnc(CS(C)(=O)=O)cc2OC(F)F)nc(N)n1 [D-85]
5.70 to 6.22

# pIC50 lookup, item Cc1cc(N2CCCOC[C@@H]2c2ccc([C@H]3CCCN3)cc2Cl)nc(N)n1 [D-90]
> 6.22

# pIC50 lookup, item Cc1cc(N2CCCOC[C@@H]2c2ccc(OCS(C)(=O)=O)cc2Cl)nc(N)n1 [D-1]
5.70 to 6.22

# pIC50 lookup, item Cc1cc(N2CCCOCC2c2cc(CN)c(Cl)cc2C)nc(N)n1 [D-73]
5.70 to 6.22

# pIC50 lookup, item CCc1cc(N2CCCOCC2c2cc(O)c(S(C)(=O)=O)cc2Cl)nc(N)n1 [D-87]
≤ 5.30

# pIC50 lookup, item COC(=O)Cc1cc(C2COCCCN2c2cc(C)nc(N)n2)c(Cl)cc1C#N [D-53]
5.30 to 5.70

# pIC50 lookup, item Cc1cc(N2CCCOC[C@@H]2c2cc(CN)c(C)cc2Cl)nc(N)n1 [D-75]
> 6.22

# pIC50 lookup, item Cc1cc(N2CCCOC[C@H]2c2cnc(CS(C)(=O)=O)cc2Cl)nc(N)n1 [D-76]
> 6.22

# pIC50 lookup, item Cc1cc(N2CCCOCC2c2cc(CC(=O)O)c(C#N)cc2Cl)nc(N)n1 [D-156]
≤ 5.30

# pIC50 lookup, item CCOc1cc([C@H]2COCCCN2c2cc(C)nc(N)n2)c(Cl)cc1OC [D-34]
> 6.22

# pIC50 lookup, item Cc1cc(N2CCCOC[C@H]2c2cc(O)c(CS(C)(=O)=O)cc2Cl)nc(N)n1 [D-171]
≤ 5.30
